Tested on: Ras processing in COS monkey kidney cells
Assay: Cell-based assay: transient expression of val12-Ha-Ras-CVLS in COS cells, effect on Ras processing (immunoblot)
Settings: Primates; ACTIVITY IN COS CELLS; read-out: INHIBITION OF RAS PROCESSING IC50
With a cut-off of 200 nM, any IC50 strictly below it is called yes (1); any IC50 meeting it or above is called no (0).

molecule="CN(C)CCCC(=O)N1CCC(C2c3ncc(Br)cc3CCc3cc(Cl)cc(Br)c32)CC1 (single isomer, unassigned; (+))" assigned_class="yes (1)"
molecule="O=C(CCC(=O)N1CCC(C2c3ncc(Br)cc3CCc3cc(Cl)cc(Cl)c32)CC1)N1CCCC1 (single isomer, unassigned)" assigned_class="no (0)"
molecule="O=C(NCCCC(=O)N1CCC(C2c3ncc(Br)cc3CCc3cc(Cl)cc(Cl)c32)CC1)c1cccnc1 (single isomer, unassigned)" assigned_class="no (0)"
molecule="O=C(CN1CCCC1=O)N1CCC(C2c3ncc(Br)cc3CCc3cc(Cl)cc(Cl)c32)CC1 (single isomer, unassigned)" assigned_class="no (0)"

* * *

Biological target: Farnesyl protein transferase (FPT) (Rattus norvegicus, UniProt Q02293+Q04631)
Construct: Farnesyl protein transferase (FPT) was partially purified from rat brain; from tissue; host or cells: rat brain
Sequence (Q02293 whole entry, one chain of several): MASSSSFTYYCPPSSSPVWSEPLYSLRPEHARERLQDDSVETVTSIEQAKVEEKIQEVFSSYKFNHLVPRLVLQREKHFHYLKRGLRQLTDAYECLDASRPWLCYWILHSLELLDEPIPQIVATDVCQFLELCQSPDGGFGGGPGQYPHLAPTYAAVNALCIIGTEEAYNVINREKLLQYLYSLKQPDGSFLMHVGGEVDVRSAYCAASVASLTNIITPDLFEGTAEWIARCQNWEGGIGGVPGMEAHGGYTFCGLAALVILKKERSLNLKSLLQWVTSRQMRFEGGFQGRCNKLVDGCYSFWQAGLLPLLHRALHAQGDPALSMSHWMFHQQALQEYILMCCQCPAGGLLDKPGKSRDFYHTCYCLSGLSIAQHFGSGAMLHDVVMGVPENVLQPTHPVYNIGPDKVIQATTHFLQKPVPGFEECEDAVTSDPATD
Experiment: In vitro enzyme assay: inhibition of farnesyl protein transferase (transfer of [3H]farnesyl from [3H]farnesyl pyrophosphate to Ras-CVLS)
Type: biochemical
Conditions: read-out: FPT IC50; FPT INHIBITION
pIC50: −log10 of the molar value.
Measured pIC50 of individual entries
QUANTITY_MEASURED: pIC50

compound="O=C(O)CCCCC(=O)N1CCC([C@H]2c3ncc(Br)cc3CCc3cc(Cl)cc(Br)c32)CC1 [Example 55]" reported_result=7.77
compound="O=C(O)CCC(=O)N1CCC([C@H]2c3ncc(Br)cc3CCc3cc(Cl)cc(Br)c32)CC1 [Example 49]" reported_result=6.57
compound="O=C(O)CCCC(=O)N1CCC([C@H]2c3ncc(Br)cc3CCc3cc(Cl)cc(Br)c32)CC1 [Example 52]" reported_result=7.36
compound="COC(=O)CCC(=O)N1CCC([C@H]2c3ncc(Br)cc3CCc3cc(Cl)cc(Br)c32)CC1 [Example 48]" reported_result=8.05
compound="O=C(O)CC(=O)N1CCC([C@H]2c3ncc(Br)cc3CCc3cc(Cl)cc(Br)c32)CC1 [Example 46]" reported_result=7.11
